# tested.on: P2Y purinoceptor 2 (Homo sapiens, UniProt P41231)
# Sequence (P41231 whole entry): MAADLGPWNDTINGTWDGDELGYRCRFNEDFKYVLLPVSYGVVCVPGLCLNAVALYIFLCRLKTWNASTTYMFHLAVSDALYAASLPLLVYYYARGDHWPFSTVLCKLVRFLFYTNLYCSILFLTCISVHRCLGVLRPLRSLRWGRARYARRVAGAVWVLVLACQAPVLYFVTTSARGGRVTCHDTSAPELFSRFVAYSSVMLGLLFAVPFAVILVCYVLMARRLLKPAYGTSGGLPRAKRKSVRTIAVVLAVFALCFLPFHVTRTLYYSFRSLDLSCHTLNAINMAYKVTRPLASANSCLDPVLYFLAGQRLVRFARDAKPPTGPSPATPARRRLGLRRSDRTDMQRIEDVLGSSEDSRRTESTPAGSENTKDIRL
# protocol.summary: Agonist activity at human recombinant P2Y2 receptor expressed in human 1321N1 cells assessed as [3H]inositol phosphate production after 30 mins by scintillation proximity assay
# Format: functional, cell-based
measured.parameter: pEC50
Would you please state pEC50, meaning minus log10 of the concentration in mol/L, as a bare number?

pEC50 value, target or system P2Y purinoceptor 2 (Homo sapiens, UniProt P41231), for `O=c1ccn([C@@H]2O[C@H](COP(=O)(O)OP(=O)(O)OP(=O)(O)OP(=O)(O)O[C@H]3O[C@H](CO)[C@@H](O)[C@H](F)[C@H]3O)[C@@H](O)[C@H]2O)c(=O)[nH]1` : 6.15

pEC50 value, target or system P2Y purinoceptor 2 (Homo sapiens, UniProt P41231), for `O=c1ccn([C@@H]2O[C@H](COP(=O)(O)OP(=O)(O)OP(=O)(O)OP(=O)(O)Oc3ccc([N+](=O)[O-])cc3)[C@@H](O)[C@H]2O)c(=O)[nH]1` : 5.31

pEC50 value, target or system P2Y purinoceptor 2 (Homo sapiens, UniProt P41231), for `O=c1ccn([C@@H]2O[C@H](COP(=O)(O)OP(=O)(O)OP(=O)(O)OP(=O)(O)Oc3ccc(Cl)cc3)[C@@H](O)[C@H]2O)c(=O)[nH]1` : 5.18

pEC50 value, target or system P2Y purinoceptor 2 (Homo sapiens, UniProt P41231), for `O=c1ccn([C@@H]2O[C@H](COP(=O)(O)OP(=O)(O)OP(=O)(O)OP(=O)(O)Oc3cccc(Cl)c3)[C@@H](O)[C@H]2O)c(=O)[nH]1` : 6.08

pEC50 value, target or system P2Y purinoceptor 2 (Homo sapiens, UniProt P41231), for `O=c1ccn([C@@H]2O[C@H](COP(=O)(O)OP(=O)(O)OP(=O)(O)OP(=O)(O)O[C@H]3O[C@H](CO)[C@@H](O)[C@@H](O)[C@H]3O)[C@@H](O)[C@H]2O)c(=O)[nH]1` : 6.11

pEC50 value, target or system P2Y purinoceptor 2 (Homo sapiens, UniProt P41231), for O=c1ccn([C@@H]2O[C@H](COP(=O)(O)OP(=O)(O)OP(=O)(O)O)[C@@H](O)[C@H]2O)c(=O)[nH]1 [URIDINE TRIPHOSPHATE] : 7.26

pEC50 value, target or system P2Y purinoceptor 2 (Homo sapiens, UniProt P41231), for `O=c1ccn([C@@H]2O[C@H](COP(=O)(O)OP(=O)(O)OP(=O)(O)OP(=O)(O)Oc3cccc([N+](=O)[O-])c3)[C@@H](O)[C@H]2O)c(=O)[nH]1` : 5.48

pEC50 value, target or system P2Y purinoceptor 2 (Homo sapiens, UniProt P41231), for `O=c1ccn([C@@H]2O[C@H](COP(=O)(O)OP(=O)(O)C(Cl)(Cl)P(=O)(O)O)[C@@H](O)[C@H]2O)c(=O)[nH]1` : 5.02

pEC50 value, target or system P2Y purinoceptor 2 (Homo sapiens, UniProt P41231), for `O=c1ccn([C@@H]2O[C@H](COP(=O)(O)OP(=O)(O)OP(=O)(O)OP(=O)(O)O[C@H]3O[C@H](CO)[C@H](O)[C@H](O)[C@H]3O)[C@@H](O)[C@H]2O)c(=O)[nH]1` : 6.03

pEC50 value, target or system P2Y purinoceptor 2 (Homo sapiens, UniProt P41231), for `CC(=O)N[C@H]1[C@@H](OP(=O)(O)OP(=O)(O)OP(=O)(O)OP(=O)(O)OC[C@H]2O[C@@H](n3ccc(=O)[nH]c3=O)[C@H](O)[C@@H]2O)O[C@H](CO)[C@@H](O)[C@@H]1O` : 5.72

pEC50 value, target or system P2Y purinoceptor 2 (Homo sapiens, UniProt P41231), for `O=C(O)[C@H]1O[C@H](OP(=O)(O)OP(=O)(O)OP(=O)(O)OP(=O)(O)OC[C@H]2O[C@@H](n3ccc(=O)[nH]c3=O)[C@H](O)[C@@H]2O)[C@H](O)[C@@H](O)[C@@H]1O` : 6.31

pEC50 value, target or system P2Y purinoceptor 2 (Homo sapiens, UniProt P41231), for `O=c1ccn([C@@H]2O[C@H](COP(=O)(O)OP(=O)(O)OP(=O)(O)OP(=O)(O)O[C@H]3O[C@H](CO)[C@@H](O)[C@H](O)[C@@H]3O)[C@@H](O)[C@H]2O)c(=O)[nH]1` : 5.43

pEC50 value, target or system P2Y purinoceptor 2 (Homo sapiens, UniProt P41231), for `O=c1ccn([C@@H]2O[C@H](COP(=O)(O)OP(=O)(O)OP(=O)(O)OP(=O)(O)Oc3ccccc3)[C@@H](O)[C@H]2O)c(=O)[nH]1` : 5.56

pEC50 value, target or system P2Y purinoceptor 2 (Homo sapiens, UniProt P41231), for `CC(C)(C)ONc1ccn([C@@H]2O[C@H](COP(=O)(O)OP(=O)(O)OP(=O)(O)O)[C@@H](O)[C@H]2O)c(=O)n1` : 5.82

pEC50 value, target or system P2Y purinoceptor 2 (Homo sapiens, UniProt P41231), for `O=c1ccn([C@@H]2O[C@H](COP(=O)(O)OP(=O)(O)OP(=O)(O)OP(=O)(O)O[C@H]3O[C@H](CO)[C@@H](F)[C@H](O)[C@H]3O)[C@@H](O)[C@H]2O)c(=O)[nH]1` : 6.21

pEC50 value, target or system P2Y purinoceptor 2 (Homo sapiens, UniProt P41231), for `O=c1[nH]/c(=N\OCc2ccccc2)ccn1[C@@H]1O[C@H](COP(=O)(O)OP(=O)(O)OP(=O)(O)OP(=O)(O)O[C@H]2O[C@H](CO)[C@@H](O)[C@H](F)[C@H]2O)[C@@H](O)[C@H]1O` : 5.58

pEC50 value, target or system P2Y purinoceptor 2 (Homo sapiens, UniProt P41231), for `O=c1ccn([C@@H]2O[C@H](COP(=O)(O)OP(=O)(O)OP(=O)(O)OP(=O)(O)O[C@H]3OC[C@@H](O)[C@H](O)[C@H]3O)[C@@H](O)[C@H]2O)c(=O)[nH]1` : 5.56

pEC50 value, target or system P2Y purinoceptor 2 (Homo sapiens, UniProt P41231), for `O=c1nc(NOCCCc2ccccc2)ccn1[C@@H]1O[C@H](COP(=O)(O)OP(=O)(O)OP(=O)(O)O)[C@@H](O)[C@H]1O` : 6.19

pEC50 value, target or system P2Y purinoceptor 2 (Homo sapiens, UniProt P41231), for `CONc1ccn([C@@H]2O[C@H](COP(=O)(O)OP(=O)(O)OP(=O)(O)OP(=O)(O)O[C@H]3O[C@H](CO)[C@@H](O)[C@H](F)[C@H]3O)[C@@H](O)[C@H]2O)c(=O)n1` : 6.30

pEC50 value, target or system P2Y purinoceptor 2 (Homo sapiens, UniProt P41231), for `O=c1ccn([C@@H]2O[C@H](COP(=O)(O)OP(=O)(O)OP(=O)(O)OP(=O)(O)O)[C@@H](O)[C@H]2O)c(=O)[nH]1` : 5.41
